Provide the reported GI50 of each item.
- Test system: IGROV1 ovarian
- test: NCI tumour cell line growth inhibition, 48 h

# sampleSmiles, GI50
records = [
    ("N/C(=N\\c1nc2c(Cl)cc(Cl)cc2s1)C(Cl)(Cl)Cl", "55.8 µM"),
    ("COc1ccc(-n2c(SCC(=O)Nc3ccc(-c4nc5ccccc5[nH]4)cc3)nc3ccccc3c2=O)cc1", "15.2 µM"),
    ("COc1ccc(C(=O)Nc2ncc(Cc3ccccc3Cl)s2)cc1", "0.486 µM"),
]

Short answer on IGROV1 ovarian for "O=C1[C@H]2Cc3c([nH]c4ccccc34)[C@@H](c3ccc(Br)cc3)N2C(=O)CN1C1CCN(CC2CCCCC2)CC1" , GI50: 13.4 µM
